Where do the numbers come from? From patent US20260232812A1.

- TEST SYSTEM: BRD9 (Homo sapiens)
- MEASUREMENT NOTES: Assay Protocol 1 - Degradation of HiBit-BRD9 in HEK293
- Format: cell-based
- EXPERIMENTAL CONTEXT: HEK293, Assay Protocol 1: HiBit-BRD9 in HEK293, 6 h, titration up to 10 μM
I'd be grateful if you could share measured Dmax for these entries.

Query :: Value lookup for Dmax; key = COc1cc(-c2cn(C)c(=O)c(C)c2C)cc(OC)c1CN1CCN(C(=O)[C@@H]2CN(C(=O)/C(C#N)=C/c3nccs3)C[C@H]2c2ccccc2)CC1 [BRD9ai]
Result :: 30 to 50%

Query :: Value lookup for Dmax; key = COc1cc(-c2cn(C)c(=O)c(C)c2C)cc(OC)c1CN1CCC2(CC1)CCN(C(=O)/C(C#N)=C/c1cccc(Br)n1)CC2 [BRD9r]
Result :: ≥ 70%

Query :: Value lookup for Dmax; key = COc1cc(-c2cn(C)c(=O)c(C)c2C)cc(OC)c1CN(C)C1CCN(C(=O)/C(C#N)=C/c2cccc(Br)n2)CC1 [BRD9z]
Result :: ≥ 70%

====

I'd be grateful if you could share measured DC50 for these entries.
- TEST SYSTEM: BRD4 (Homo sapiens)
- Construct: HEK293 containing a HiBit insertion for BRD4; endogenous in cells; host or cells: HEK293 with a HiBiT insertion for BRD4
- MEASUREMENT NOTES: Assay 1 - Degradation of HiBit-BRD4 in HEK293
- Format: cell-based
- EXPERIMENTAL CONTEXT: HiBit-BRD4 in HEK293, 6 h treatment

Query :: Value lookup for DC50; key = CC(=O)N1c2ccc(-c3ccc(C(=O)NCCOCCOCCOCCOCCOCCNC(=O)C4CC(C5CCCCC5)CN(C(=O)/C(C#N)=C/c5ccn(C)n5)C4)cc3)cc2[C@H](Nc2ccc(Cl)cc2)C[C@@H]1C (some centres unmarked) [Example 13r]
Result :: 25 to 200 nM

Query :: Value lookup for DC50; key = CC(=O)N1c2ccc(-c3ccc(C(=O)NCCOCCOCCOCCOCCOCCNC(=O)[C@@H]4CN(C(=O)/C(C#N)=C/c5ccn(C)n5)C[C@H]4CC(C)C)cc3)cc2[C@H](Nc2ccc(Cl)cc2)C[C@@H]1C [Example 15m]
Result :: 25 to 200 nM

Query :: Value lookup for DC50; key = CC(=O)N1c2ccc(-c3ccc(C(=O)NCCOCCOCCOCCOCCOCCNC(=O)C4CC(C5CC5)CN(C(=O)/C(C#N)=C/c5nccs5)C4)cc3)cc2[C@H](Nc2ccc(Cl)cc2)C[C@@H]1C (some centres unmarked) [Example 13u]
Result :: < 25 nM

Query :: Value lookup for DC50; key = CC(=O)N1c2ccc(-c3ccc(C(=O)NCCOCCOCCOCCOCCOCCNC(=O)[C@@H]4CN(C(=O)/C(C#N)=C/C(C)(C)C)C[C@H]4c4ccc(F)cc4)cc3)cc2[C@H](Nc2ccc(Cl)cc2)C[C@@H]1C [Example 15af]
Result :: 25 to 200 nM

Query :: Value lookup for DC50; key = CC(=O)N1c2ccc(-c3ccc(C(=O)NCCOCCOCCOCCOCCOCCNC(=O)[C@@H]4CN(C(=O)/C(C#N)=C/C(C)(C)C)C[C@H]4C(C)C)cc3)cc2[C@H](Nc2ccc(Cl)cc2)C[C@@H]1C [Example 15g]
Result :: 25 to 200 nM

====

I'd be grateful if you could share measured DC50 for these entries.
- TEST SYSTEM: BRD4 (Homo sapiens)
- Construct: HEK293 containing a HiBit insertion for BRD4; endogenous in cells; host or cells: HEK293 with a HiBiT insertion for BRD4
- MEASUREMENT NOTES: Assay 1 - Degradation of HiBit-BRD4 in HEK293
- Type: cell-based
- EXPERIMENTAL CONTEXT: HiBit-BRD4 in HEK293, 6 h treatment

Query :: Value lookup for DC50; key = CC(=O)N1c2ccc(-c3ccc(C(=O)NCCOCCOCCOCCOCCOCCNC(=O)[C@@H]4CN(C(=O)/C(C#N)=C/c5ccn(C)n5)C[C@H]4c4ccccc4)cc3)cc2[C@H](Nc2ccc(Cl)cc2)C[C@@H]1C [Example 15w]
Result :: 25 to 200 nM

Query :: Value lookup for DC50; key = CC(=O)N1c2ccc(-c3ccc(C(=O)NCCOCCOCCOCCOCCOCCNC(=O)[C@@H]4CN(C(=O)/C(C#N)=C/C(C)(C)CN5CCOCC5)C[C@H]4c4ccc(F)cc4)cc3)cc2[C@H](Nc2ccc(Cl)cc2)C[C@@H]1C [Example 15ai]
Result :: 25 to 200 nM

Query :: Value lookup for DC50; key = CC(=O)N1c2ccc(-c3ccc(C(=O)NCCOCCOCCOCCOCCOCCNC(=O)C4CCCN(C(=O)/C(C#N)=C/C(C)(C)CN5CCOCC5)C4)cc3)cc2[C@H](Nc2ccc(Cl)cc2)C[C@@H]1C (stereo partly shown) [Example 13e]
Result :: > 200 nM

Query :: Value lookup for DC50; key = CC(=O)N1c2ccc(-c3ccc(C(=O)NCCOCCOCCOCCOCCOCCNC(=O)C4CC(C5CCCCC5)CN(C(=O)/C(C#N)=C/c5ccc(F)cc5)C4)cc3)cc2[C@H](Nc2ccc(Cl)cc2)C[C@@H]1C (stereo partly shown) [Example 13s]
Result :: 25 to 200 nM

====

- TEST SYSTEM: BRD9 (Homo sapiens, UniProt Q9H8M2)
- Sequence (Q9H8M2 whole entry): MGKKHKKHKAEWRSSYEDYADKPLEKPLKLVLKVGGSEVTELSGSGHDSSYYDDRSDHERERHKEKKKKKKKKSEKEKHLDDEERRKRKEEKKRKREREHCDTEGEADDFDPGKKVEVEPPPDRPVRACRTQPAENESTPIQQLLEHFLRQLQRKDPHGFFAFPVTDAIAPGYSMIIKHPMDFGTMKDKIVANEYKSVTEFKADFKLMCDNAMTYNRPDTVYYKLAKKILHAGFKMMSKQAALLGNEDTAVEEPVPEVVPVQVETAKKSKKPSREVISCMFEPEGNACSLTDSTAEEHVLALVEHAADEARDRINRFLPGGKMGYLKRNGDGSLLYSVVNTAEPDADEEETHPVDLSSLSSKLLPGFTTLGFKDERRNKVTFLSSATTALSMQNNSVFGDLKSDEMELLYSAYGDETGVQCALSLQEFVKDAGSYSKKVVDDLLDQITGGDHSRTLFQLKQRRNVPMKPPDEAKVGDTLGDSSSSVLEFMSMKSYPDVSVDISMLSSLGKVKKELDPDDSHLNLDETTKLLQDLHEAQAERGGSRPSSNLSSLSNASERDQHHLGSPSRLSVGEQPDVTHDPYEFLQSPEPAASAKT
- MEASUREMENT NOTES: Assay Protocol 1 - Degradation of HiBit-BRD9 in HEK293
- Assay type: cell-based
- EXPERIMENTAL CONTEXT: HEK293, Assay Protocol 1: HiBit-BRD9 in HEK293, 6 h, titration up to 10 μM
METRIC NAME: Dmax

Query :: Value lookup for Dmax; key = COc1ccc([C@@H]2CN(C(=O)/C(C#N)=C/c3nccs3)C[C@H]2C(=O)N2CCN(Cc3c(OC)cc(-c4cn(C)c(=O)c(C)c4C)cc3OC)CC2)cc1
Result :: 30 to 50%

Query :: Value lookup for Dmax; key = COc1cc(-c2cn(C)c(=O)c(C)c2C)cc(OC)c1CN1CCN(C(=O)/C(C#N)=C/c2nccs2)CC1
Result :: 30 to 50%

Query :: Value lookup for Dmax; key = COc1cc(-c2cn(C)c(=O)c(C)c2C)cc(OC)c1CN(C)C1CCN(C(=O)/C(C#N)=C/C23CC(C2)C3)CC1 (mixture of isomers)
Result :: ≥ 70%

====

I'd be grateful if you could share measured Dmax for these entries.
- TEST SYSTEM: BRD4 (Homo sapiens, UniProt O60885)
- Construct: HEK293 containing a HiBit insertion for BRD4; endogenous in cells; host or cells: HEK293 with a HiBiT insertion for BRD4
- MEASUREMENT NOTES: Assay 1 - Degradation of HiBit-BRD4 in HEK293
- Assay type: cell-based
- EXPERIMENTAL CONTEXT: HiBit-BRD4 in HEK293, 6 h treatment

Query :: Value lookup for Dmax; key = COc1ccc(C2CC(C(=O)NCCOCCOCCOCCOCCOCCNC(=O)c3ccc(-c4ccc5c(c4)[C@H](Nc4ccc(Cl)cc4)C[C@H](C)N5C(C)=O)cc3)CN(C(=O)/C(C#N)=C/C(C)(C)C)C2)cc1 (some centres unmarked) [Example 13af]
Result :: 50 to 70%

Query :: Value lookup for Dmax; key = CC(=O)N1c2ccc(-c3ccc(C(=O)NCCOCCOCCOCCOCCOCCNC(=O)C4CC(C)CN(C(=O)/C(C#N)=C/C(C)(C)C)C4)cc3)cc2[C@H](Nc2ccc(Cl)cc2)C[C@@H]1C (some centres unmarked) [Example 13g]
Result :: 50 to 70%

Query :: Value lookup for Dmax; key = CC(=O)N1c2ccc(-c3ccc(C(=O)NCCOCCOCCOCCOCCOCCNC(=O)C4CC(c5cccc(C)c5)CN(C(=O)/C(C#N)=C/C(C)(C)CN5CCOCC5)C4)cc3)cc2[C@H](Nc2ccc(Cl)cc2)C[C@@H]1C (some centres unmarked) [Example 13ax]
Result :: ≥ 70%

Query :: Value lookup for Dmax; key = CC(=O)N1c2ccc(-c3ccc(C(=O)NCCOCCOCCOCCOCCOCCNC(=O)C4CC(C)CN(C(=O)/C(C#N)=C/c5ccc(F)cc5)C4)cc3)cc2[C@H](Nc2ccc(Cl)cc2)C[C@@H]1C (some centres unmarked) [Example 13i]
Result :: 30 to 50%

Query :: Value lookup for Dmax; key = CC(=O)N1c2ccc(-c3ccc(C(=O)NCCOCCOCCOCCOCCOCCNC(=O)[C@@H]4CN(C(=O)/C(C#N)=C/c5nccs5)C[C@H]4C(C)C)cc3)cc2[C@H](Nc2ccc(Cl)cc2)C[C@@H]1C [Example 15f]
Result :: 30 to 50%

====

- TEST SYSTEM: BRD4 (Homo sapiens, UniProt O60885)
- Construct: HEK293 containing a HiBit insertion for BRD4; endogenous in cells; host or cells: HEK293 with a HiBiT insertion for BRD4
- MEASUREMENT NOTES: Assay 1 - Degradation of HiBit-BRD4 in HEK293
- Type: cell-based
- EXPERIMENTAL CONTEXT: HiBit-BRD4 in HEK293, 6 h treatment
I'd be grateful if you could share measured DC50 for these entries.

Query :: Value lookup for DC50; key = CC(=O)N1c2ccc(-c3ccc(C(=O)NCCOCCOCCOCCOCCOCCNC(=O)C4CC(c5ccccc5)CN(C(=O)/C(C#N)=C/c5ccn(C)n5)C4)cc3)cc2[C@H](Nc2ccc(Cl)cc2)C[C@@H]1C (stereo partly drawn) [Example 13ab]
Result :: > 200 nM

Query :: Value lookup for DC50; key = CC(=O)N1c2ccc(-c3ccc(C(=O)NCCOCCOCCOCCOCCOCCNC(=O)C4CC(C5CCCCC5)CN(C(=O)/C(C#N)=C/c5nccs5)C4)cc3)cc2[C@H](Nc2ccc(Cl)cc2)C[C@@H]1C (stereo partly drawn) [Example 13p]
Result :: < 25 nM

Query :: Value lookup for DC50; key = CC(=O)N1c2ccc(-c3ccc(C(=O)NCCOCCOCCOCCOCCOCCNC(=O)[C@@H]4CN(C(=O)/C(C#N)=C/C(C)(C)C)C[C@H]4C4CCCCC4)cc3)cc2[C@H](Nc2ccc(Cl)cc2)C[C@@H]1C [Example 15q]
Result :: 25 to 200 nM
